Test: Pharmacokinetic test in mice (low dose)
Type: in vivo, Balb/c mice
Details: mouse, in vivo; mice, PO 10 mg/kg vs IV 2 mg/kg; read-out: F%
metric.name: bioavailability (%)
Just the number please, in %, no unit attached.

# bioavailability of Cn1cnc(-c2cc(P(C)(C)=O)cnc2Nc2ccc(C(F)(F)F)cc2)c1 [Example 8] = 300

// Cn1cnc(-c2cc(P(C)(C)=O)ccc2Nc2ccc(C(F)(F)F)cc2)c1 [Example 14] : bioavailability value = 106

Memo: CP(C)(=O)c1cnc(Nc2ccc(C(F)(F)F)cc2)c(-c2cn3c(n2)CCC3)c1 [Example 22] , reported bioavailability: 114

Per the record, Cn1cc2c3cc(P(C)(C)=O)ccc3n(-c3ccc(C(F)(F)F)cc3)c2n1 [Example 16] has bioavailability of 206

----------
Test: Pharmacokinetic test in mice (low dose)
Type: in vivo, Balb/c mice
Settings: mouse, in vivo; mice, PO 10 mg/kg; read-out: AUClast
metric.name: AUC(0-t) (µM·h)
Field: numeric (µM·h). Do not append units.

The measured AUC(0-t) associated with Cn1cnc(-c2cc(P(C)(C)=O)ccc2Nc2ccc(C(F)(F)F)cc2)c1 [Example 14] reads 112

AUC(0-t) recorded for this molecule, CP(C)(=O)c1cnc(Nc2ccc(C(F)(F)F)cc2)c(-c2cn3c(n2)CCC3)c1 [Example 22] , is 96.4

get_value(item= CP(C)(=O)c1ccc2c(c1)c1ccccc1n2-c1ccc(C(F)(F)F)cc1 [Example 1] , readout=AUC(0-t)) returns 182

----------
Assay: Pharmacokinetic test in rats
Assay type: in vivo
Conditions: rat, plasma; SD rats, IV 2 mg/kg
Protocol: In this experimental example, the pharmacokinetic behavior of the test compounds after administration by intravenous injection (IV) and oral gavage (PO) in SD rats was tested. […] On the day of administration, rats were weighed for actual body weight, and the administration volume was calculated. […] Plasma concentrations were determined by the LC-MS/MS method. […] The relevant pharmacokinetic parameters were calculated by a linear-log trapezoidal method.
Could you mark each record y if its clearance falls strictly under 2 mL/min/kg, and n if it equals or exceeds it?

Check if clearance falls below 2 mL/min/kg for Cn1cnc(-c2cc(P(C)(C)=O)ccc2Nc2ccc(C(F)(F)F)cc2)c1 .
n

Threshold test, clearance < 2 mL/min/kg: CP(C)(=O)c1ccc(Nc2ccc(C(F)(F)F)cc2)c(-c2ncccn2)c1
y

Regarding CP(C)(=O)c1ccc2c(c1)c1ccccc1n2-c1ccc(C(F)(F)F)cc1 , kindly confirm whether its clearance is beneath 2 mL/min/kg.
y

Just wondering, is clearance of Cn1cnc(-c2cc(P(C)(C)=O)cnc2Nc2ccc(C(F)(F)F)cc2)c1 below 2 mL/min/kg?
n

Just wondering, is clearance of CP(C)(=O)c1ccc(Nc2ccc(C(F)(F)F)cc2)c(-c2ccccn2)c1 below 2 mL/min/kg?
n

Identify whether the compound CP(C)(=O)c1cnc(Nc2ccc(C(F)(F)F)cc2)c(-c2cn3c(n2)CCC3)c1 records clearance below 2 mL/min/kg.
n

----------
Assay: Pharmacokinetic test in mice (low dose)
Format: in vivo, Balb/c mice
Settings: mouse, in vivo; mice, IV 2 mg/kg
metric.name: MRT (h)
Supply the numeric figure in h, leaving out any unit text.

Note to self: MRT recorded for Cn1cnc(-c2cc(P(C)(C)=O)cnc2Nc2ccc(C(F)(F)F)cc2)c1 [Example 8] was 6.4

// MRT value for Cn1cnc(-c2cc(P(C)(C)=O)ccc2Nc2ccc(C(F)(F)F)cc2)c1 [Example 14] : 26.2

So, CP(C)(=O)c1cnc(Oc2ccc(C(F)(F)F)cc2)c(-c2cn3c(n2)CCC3)c1 [Example 9] ? Its MRT was 1.7

Lookup result for CP(C)(=O)c1ccc2c(Oc3ccc(C(F)(F)F)cc3)cccc2c1 [Example 7] ; measured MRT: 171

The compound CP(C)(=O)c1cnc(Nc2ccc(C(F)(F)F)cc2)c(-c2cn3c(n2)CCC3)c1 [Example 22] showed MRT equal to 10.8

What the record says about Cn1cc2c3cc(P(C)(C)=O)ccc3n(-c3ccc(C(F)(F)F)cc3)c2n1 [Example 16] : MRT is 3.6

Sample CP(C)(=O)c1ccc2c(c1)c1ccccc1n2-c1ccc(C(F)(F)F)cc1 [Example 1] ; MRT observed: 6.1

----------
Experiment: Pharmacokinetic test in rats
Assay type: in vivo
Settings: rat, plasma; SD rats, IV 2 mg/kg
Experimental: In this experimental example, the pharmacokinetic behavior of the test compounds after administration by intravenous injection (IV) and oral gavage (PO) in SD rats was tested. […] On the day of administration, rats were weighed for actual body weight, and the administration volume was calculated. […] Plasma concentrations were determined by the LC-MS/MS method. […] The relevant pharmacokinetic parameters were calculated by a linear-log trapezoidal method.
metric.name: MRT (h)
I only need the number, in h, no unit after it.

Summary for this compound, CP(C)(=O)c1ccc(Nc2ccc(C(F)(F)F)cc2)c(-c2ccccn2)c1 : MRT is 26.5

Entry Cn1cnc(-c2cc(P(C)(C)=O)cnc2Nc2ccc(C(F)(F)F)cc2)c1 , MRT reported as 7.8

Reported MRT ( CP(C)(=O)c1cnc(Nc2ccc(C(F)(F)F)cc2)c(-c2cn3c(n2)CCC3)c1 ) = 7.6

Documented MRT of CP(C)(=O)c1ccc(Nc2ccc(C(F)(F)F)cc2)c(-c2ncccn2)c1 : 76.3

MRT for CP(C)(=O)c1ccc2c(c1)c1ccccc1n2-c1ccc(C(F)(F)F)cc1 is 46.3

MRT for CP(C)(=O)c1ccc2c(Oc3ccc(C(F)(F)F)cc3)cccc2c1 is 20.5

Sample Cn1cnc(-c2cc(P(C)(C)=O)ccc2Nc2ccc(C(F)(F)F)cc2)c1 ; MRT observed: 10.2

----------
Test: Pharmacokinetic test in mice (low dose)
Assay type: in vivo, Balb/c mice
Conditions: mouse, in vivo; mice, PO 10 mg/kg
metric.name: MRT (h)
Give just the number in h; leave the unit off.

Value of MRT reported for the compound Cn1cnc(-c2cc(P(C)(C)=O)ccc2Nc2ccc(C(F)(F)F)cc2)c1 is 17.8

Entry under test: Cn1cc2c3cc(P(C)(C)=O)ccc3n(-c3ccc(C(F)(F)F)cc3)c2n1 . Its MRT was 5.3

# MRT (compound: Cn1cnc(-c2cc(P(C)(C)=O)cnc2Nc2ccc(C(F)(F)F)cc2)c1 ) is 47.2

Just so you know, measured MRT for CP(C)(=O)c1cnc(Oc2ccc(C(F)(F)F)cc2)c(-c2cn3c(n2)CCC3)c1 came out at 3.2

Quick note, MRT for CP(C)(=O)c1ccc2c(Oc3ccc(C(F)(F)F)cc3)cccc2c1 landed at 211

// MRT lookup, compound = CP(C)(=O)c1cnc(Nc2ccc(C(F)(F)F)cc2)c(-c2cn3c(n2)CCC3)c1 , result: 9.9

For reference, reported MRT for CP(C)(=O)c1ccc2c(c1)c1ccccc1n2-c1ccc(C(F)(F)F)cc1 stands at 6.5

----------
Assay: Pharmacokinetic test in mice (low dose)
Type: in vivo, Balb/c mice
Conditions: mouse, plasma; mice, IV 2 mg/kg; read-out: Cl (converted)
metric.name: clearance (mL/min/kg)
API: value field is a number in mL/min/kg; no unit string.

Per the record, CP(C)(=O)c1ccc2c(c1)c1cccnc1n2-c1ccc(C(F)(F)F)cc1 has clearance of 8.33

clearance in this record for Cc1cc(Oc2ccc(C(F)(F)F)cc2)c2ccc(P(C)(C)=O)cc2c1 : 0.4

For this compound ( CP(C)(=O)c1ccc2c(c1)c1ncccc1n2-c1ccc(C(F)(F)F)cc1 ), measured clearance is 8.33

Summary for this compound, CP(C)(=O)c1ccc(Nc2ccc(C(F)(F)F)cc2)c(-c2ccccn2)c1 : clearance is 0.4

Lab note: CP(C)(=O)c1ccc(Nc2ccc(C(F)(F)F)cc2)c(-c2ncccn2)c1 gave clearance of 1

----------
Experiment: Pharmacokinetic test in mice (low dose)
Assay type: in vivo, Balb/c mice
Conditions: mouse, plasma; mice, IV 2 mg/kg; read-out: T1/2 (converted)
metric.name: half-life

Record summary for CP(C)(=O)c1ccc2c(c1)c1cccnc1n2-c1ccc(C(F)(F)F)cc1 [Example 5] : reported half-life = 1.8 h

Value of half-life reported for the molecule CP(C)(=O)c1ccc(Nc2ccc(C(F)(F)F)cc2)c(-c2ncccn2)c1 [Example 12] is 17.2 h

Entry under test: CP(C)(=O)c1ccc2c(c1)c1ncccc1n2-c1ccc(C(F)(F)F)cc1 [Example 4] . Its half-life was 6.3 h

Documented half-life of CP(C)(=O)c1ccc(Nc2ccc(C(F)(F)F)cc2)c(-c2ccccn2)c1 [Example 10] : 52 h

Recorded result, Cc1cc(Oc2ccc(C(F)(F)F)cc2)c2ccc(P(C)(C)=O)cc2c1 [Example 29] , half-life: 63.5 h

----------
Assay: Pharmacokinetic test in rats
Format: in vivo
Conditions: rat, plasma; SD rats, IV 2 mg/kg
metric.name: AUC(0-t) (µM·h)
State just the number; it will be interpreted in µM·h.

// recorded AUC(0-t) for CP(C)(=O)c1ccc(Nc2ccc(C(F)(F)F)cc2)c(-c2ncccn2)c1 : 34.9

Recorded AUC(0-t) (molecule Cn1cnc(-c2cc(P(C)(C)=O)ccc2Nc2ccc(C(F)(F)F)cc2)c1 ): 16.9

CP(C)(=O)c1ccc(Nc2ccc(C(F)(F)F)cc2)c(-c2ccccn2)c1 has a reported AUC(0-t) of 21.7

So for CP(C)(=O)c1cnc(Nc2ccc(C(F)(F)F)cc2)c(-c2cn3c(n2)CCC3)c1 , the logged AUC(0-t) turned out to be 6.42

The recorded AUC(0-t) for entry CP(C)(=O)c1ccc2c(Oc3ccc(C(F)(F)F)cc3)cccc2c1 equals 44.5

molecule Cn1cnc(-c2cc(P(C)(C)=O)cnc2Nc2ccc(C(F)(F)F)cc2)c1 , AUC(0-t) observed: 8.89

# AUC(0-t) (molecule: CP(C)(=O)c1ccc2c(c1)c1ccccc1n2-c1ccc(C(F)(F)F)cc1 ) is 113
